- Test system: EJ
- Protocol: Antiproliferative activity against human EJ138 cells deficit in CYPs assessed as inhibition of cell growth after 96 hrs by MTT assay
- Assay type: functional, cell-based
Assay endpoint: pIC50
Keep it numeric: pIC50 is minus log10 of the concentration in mol/L.

// below: answered compounds
Under EJ: pIC50 value of COc1ccc2[nH]c(C(=O)N3CC(CCl)c4ccc(O)cc43)cc2c1 (stereo not given) ?
7.42

Under EJ: pIC50 value of CC(C)(C)OC(=O)N1CC(CCl)c2ccc(O)cc21 (stereo not given) ?
5.09

Under EJ: pIC50 value of COc1ccc2[nH]c(C(=O)N3CC(CCl)c4cc(F)ccc43)cc2c1 (stereo not given) ?
4.73

***
Under EJ: pIC50 value of COc1ccc2[nH]c(C(=O)N3CC(CCl)c4ccccc43)cc2c1 (stereo not given) ?
4.82

----------
- Tested on: EJ
- Protocol: Antiproliferative activity against human EJ138 cells assessed as inhibition of cell growth preincubated for 1 hr with human CYP1B1 expressing bactosomes measured after 96 hrs by MTT assay
- Assay type: functional, cell-based
Assay endpoint: pIC50
Keep it numeric: pIC50 is minus log10 of the concentration in mol/L.

What pIC50 value was documented for this compound, COc1ccc2[nH]c(C(=O)N3CC(CCl)c4ccccc43)cc2c1 (configuration not stated) ?
4.87

***
What pIC50 value was documented for this compound, COc1ccc2[nH]c(C(=O)N3CC(CCl)c4cc(F)ccc43)cc2c1 (configuration not stated) ?
4.92

----------
- Tested on: CHO
- Protocol: Antiproliferative activity against wild type chinese hamster CHO cells deficit in CYPs assessed as inhibition of cell growth after 96 hrs by MTT assay
- Type: functional, cell-based
- Test settings: Cricetulus griseus
Assay endpoint: pIC50
Keep it numeric: pIC50 is minus log10 of the concentration in mol/L.

What pIC50 value was documented for this molecule, COc1ccc2[nH]c(C(=O)N3CC(CCl)c4cc(F)ccc43)cc2c1 (stereo not given) ?
4.83

What pIC50 value was documented for this molecule, CC(C)(C)OC(=O)N1CC(CCl)c2ccc(O)cc21 (stereo not given) ?
5.14

What pIC50 value was documented for this molecule, COc1ccc2[nH]c(C(=O)N3CC(CCl)c4ccc(O)cc43)cc2c1 (stereo not given) ?
7.52

Then this molecule:
What pIC50 value was documented for this molecule, COc1ccc2[nH]c(C(=O)N3CC(CCl)c4ccccc43)cc2c1 (stereo not given) ?
4.94

----------
Reported IC50 values follow for various molecules
- Test system: EJ
- Protocol: Antiproliferative activity against human EJ138 cells assessed as inhibition of cell growth preincubated for 1 hr with human CYP1A2 expressing bactosomes measured after 96 hrs by MTT assay
- Type: functional, cell-based
Field: numeric (µM). Do not append units.

What IC50 value was documented for this molecule, COc1ccc2[nH]c(C(=O)N3CC(CCl)c4ccccc43)cc2c1 (configuration not stated) ?
1.9

Then this molecule:
What IC50 value was documented for this molecule, COc1ccc2[nH]c(C(=O)N3CC(CCl)c4cc(F)ccc43)cc2c1 (configuration not stated) ?
5.11

----------
Reported IC50 values follow for various compounds
- Tested on: RT-112
- Protocol: Antiproliferative activity against human RT112 cells proficient in CYP1A1 assessed as inhibition of cell growth after 96 hrs by MTT assay
- Format: functional, cell-based
- Test settings: RT-112, 96 h
Field: numeric (µM). Do not append units.

// below: answered compounds
What IC50 value was documented for this compound, COc1ccc2[nH]c(C(=O)N3CC(CCl)c4ccc(O)cc43)cc2c1 (stereo not given) ?
0.055

What IC50 value was documented for this compound, CC(C)(C)OC(=O)N1CC(CCl)c2ccc(O)cc21 (stereo not given) ?
11.1

What IC50 value was documented for this compound, COc1ccc2[nH]c(C(=O)N3CC(CCl)c4cc(F)ccc43)cc2c1 (stereo not given) ?
5.04

Then this compound:
What IC50 value was documented for this compound, COc1ccc2[nH]c(C(=O)N3CC(CCl)c4ccccc43)cc2c1 (stereo not given) ?
8.04
